What follows is a collection of IC50 values obtained with MAPK14 (UniProt Q16539).
Sequence (Q16539 whole entry, looked up): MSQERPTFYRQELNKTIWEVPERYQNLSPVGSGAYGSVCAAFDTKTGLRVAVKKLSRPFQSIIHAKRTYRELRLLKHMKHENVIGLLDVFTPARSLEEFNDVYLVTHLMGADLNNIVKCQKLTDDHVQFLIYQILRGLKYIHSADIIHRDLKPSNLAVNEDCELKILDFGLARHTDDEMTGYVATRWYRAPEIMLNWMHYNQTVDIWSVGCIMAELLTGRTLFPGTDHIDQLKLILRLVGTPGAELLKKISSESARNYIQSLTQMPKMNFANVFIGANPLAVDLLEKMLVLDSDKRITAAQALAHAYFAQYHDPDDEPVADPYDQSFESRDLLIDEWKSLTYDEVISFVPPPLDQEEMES

Query: State its IC50 for this compound: "Cc1cccc(-c2nn3c(c2-c2ccnc4cc(N)ccc24)CCC3)n1"
Result: < 20 µM

Query: State its IC50 for this compound: "O=C(NCCc1c[nH]cn1)c1ccc2c(-c3c(-c4ccccn4)nn4c3CCC4)ccnc2c1"
Result: < 20 µM

Query: State its IC50 for this compound: "CNC(=O)c1ccc2c(-c3c(-c4ccccn4)nn4c3CCC4)ccnc2c1"
Result: < 20 µM
